EXPERIMENT DESCRIPTION: Concentration of TAK-242 in plasma and brain tissue after i.p. injection (LC-MS/MS)
Type: in vivo, mice (C57BL/6J)
MEASUREMENT SETUP: male, C57BL/6J, mouse, hemisphere contralateral to ischemia, ip; 3 hrs after i.p. injection, 3 mg/kg body weight, brain tissue; read-out: concentration of TAK-242 in hemisphere contralateral to ischemia
EXPERIMENTAL ENDPOINT: concentration at 3 h (ng/mL)
Give bare numbers, in ng/mL.

Query: Give the value of concentration at 3 h reported for the following: "CCOC(=O)C1=CCCC[C@H]1S(=O)(=O)Nc1ccc(F)cc1Cl"
Response: 14.2
